Values from patent US20250034171A1

Experiment: Metabolic stability in liver microsomes (intrinsic clearance)
Type: in vitro ADME
Conditions: mouse, microsomes, pH 7.4, Metabolic Stability Half life (mouse, min.)
OBSERVED PROPERTY: half-life at 1 µM

The reported half-life at 1 µM of the compound CCc1nc2ncc(C)cn2c1C(=O)NCc1ccc(-c2nc3n(n2)CCCC3)cc1 [Compound 31ab] was > 3 h

The recorded half-life at 1 µM for entry CCc1nc2nc(C)ccn2c1C(=O)NCc1ccc(-c2cn3c(n2)CC(C)CC3)cc1 (stereo not drawn) [Compound 91] equals > 3 h

Entry CCc1nc2ncc(C)cn2c1C(=O)NCc1ccc(-c2nc3n(n2)CCC(C(F)(F)F)C3)cc1 (single isomer, unassigned) [Compound 1a] , half-life at 1 µM reported as > 3 h
